B1: HDV Ribozyme (parent)
chain: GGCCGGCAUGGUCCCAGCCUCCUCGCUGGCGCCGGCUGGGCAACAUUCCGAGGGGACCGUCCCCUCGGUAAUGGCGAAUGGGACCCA

# Variants of: B1
# test-protocol: self-cleavage, relative activity (ratio to wild type); higher = more cleavage; co-transcriptional
parameter: self-cleavage

Some variants with recorded self-cleavage:
>>> df
   mutant_designation      parameter  test_value
0           C36G G40C  self-cleavage       0.185
1           U65G G76C  self-cleavage        1.15
2           C15A C48U  self-cleavage        0.54

Q: self-cleavage for C26A G50C ?
Ans: 1.16

Q: Using the record for G54A U72A , report its self-cleavage.
Ans: 0.707

Q: Request the reported self-cleavage associated with C18U G31C
Ans: 0.0326

Q: Which self-cleavage is listed for C36U A83C ?
Ans: 0.185

Q: Requested read-out: self-cleavage. Entry: C3A U47A
Ans: 0.429
